I'd be grateful if you could share measured protein stability index for these entries.
B1: FUT8 (parent)
chain: YAHQPRTADEIPMEPGDIIGVAGN

- Variants of: B1
- protocol_description: protein stability index of a GFP-peptide fusion (GPS, HEK-293T) (PSI 1-6); higher = more stable;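 note: lentivirally expressed fusions sorted by FACS into six bins by GFP to DsRed ratio, PSI derived from sequencing read proportions per bin multiplied by bin number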
- stated_conditions: c terminus: a fixed tail appended
Give your answer as a number; write no unit.

State its protein stability index: YAHQPRTWDEIPMEPGDIIGVAGN [A8W]
2.78

State its protein stability index: YAHQPRTADEIPREPGDIIGVAGN [M13R]
4.43

State its protein stability index: YAHQPRTADEIPMEPGDNIGVAGN [I18N]
4.03

State its protein stability index: YAHQPRTALEIPMEPGDIIGVAGN [D9L]
3.1

State its protein stability index: YAHQPRTADEIPMCPGDIIGVAGN [E14C]
3.32

State its protein stability index: YAHQPRRADEIPMEPGDIIGVAGN [T7R]
3.9

State its protein stability index: YAHQPRTADEIPMEPGDIIGVAGM [N24M]
3.21

State its protein stability index: YAHQPRTADFIPMEPGDIIGVAGN [E10F]
3.14

State its protein stability index: YAHQPRTADEIPGEPGDIIGVAGN [M13G]
4.52

State its protein stability index: YAHQPRTADQIPMEPGDIIGVAGN [E10Q]
3.08

State its protein stability index: YAHQPRTADEIPMEPGDIIGVADN [G23D]
4.24

State its protein stability index: YAHQPRTAEEIPMEPGDIIGVAGN [D9E]
4.09

State its protein stability index: NAHQPRTADEIPMEPGDIIGVAGN [Y1N]
4.75

State its protein stability index: YAHQPRTADEIPMEPKDIIGVAGN [G16K]
3.75

State its protein stability index: YAHQPRTADEIPMEPGSIIGVAGN [D17S]
3.78

State its protein stability index: YAHQPRNADEIPMEPGDIIGVAGN [T7N]
4.51

State its protein stability index: YAHQPRTADEIPMEPGPIIGVAGN [D17P]
3.14

State its protein stability index: YAHQKRTADEIPMEPGDIIGVAGN [P5K]
3.61

State its protein stability index: YAHQPRTADEIPMEPGDIIGAAGN [V21A]
4.33

State its protein stability index: YAHQPRTADEIPMEPGDIIGVVGN [A22V]
3.26

State its protein stability index: YAHQPRTADEIPMEPGDIIGVIGN [A22I]
3.12

State its protein stability index: YAHQPRTADEIPMEPGDSIGVAGN [I18S]
3.79
